Tested on: T. cruzi (Dm28c-Luc) intracellular amastigotes
Assay: Trypanocidal activity against intracellular amastigotes in infected Vero cell monolayers
Assay type: cell-based, Trypanosoma cruzi
Details: Trypanosoma cruzi, Vero, pIC50 = −log IC50, Dm28c-Luc clone; read-out: Intracellular Amastigotes pIC50 (converted)
For each of the molecules below, state its IC50.
Give bare numbers, in µM.

For each listed entry, give its IC50.
1. Nc1c(C2=NCCS2)cnn1-c1ccc(F)cc1
2. Nc1c(C2=NCCS2)cnn1-c1cccc(Br)c1
3. Nc1c(C2=NCCS2)cnn1-c1cccc(Cl)c1Cl
4. Clc1cccc(-n2cc(C3=NCCS3)cn2)c1Cl
5. c1ccc(-n2cc(C3=NCCS3)cn2)cc1
6. Nc1c(C2=NCCS2)cnn1-c1ccccc1

Output:
1: 97.7; 2: 26.9; 3: 11.2; 4: 25.7; 5: 10.7; 6: 81.3

---

Test system: Vero cells
Experiment: Cytotoxicity in vitro assay (CellTiter-Glo)
Format: cell-based
Settings: 72 h, mean ± SD
Experimental: Vero cells, obtained from the Rio de Janeiro Cell Bank (BCRJ code 0245), were dissociated with trypsin–EDTA solution (0.025%), and maintained in RPMI 1640 medium supplemented with 10% fetal bovine serum (FBS) at 37 °C in a humidified atmosphere of 5% CO2. The compound toxicity was evaluated in Vero cell cultures. […] The cell viability was determined by luminescent assay using the CellTiter-Glo Kit (Promega Corporation, Madison, WI, USA) based on the ATP level. […]
endpointLabel: CC50 (µM)
Give bare numbers, in µM.

Input: Annotate the molecule Clc1ccc(-n2cc(C3=NCCS3)cn2)c(Cl)c1 with its measured CC50.
Output: 107

---

System: T. cruzi (Dm28c-Luc) intracellular amastigotes
Test: Trypanocidal activity against intracellular amastigotes in infected Vero cell monolayers
Format: cell-based, Trypanosoma cruzi
Conditions: Dm28c-Luc in Vero cells, 72 h, mean ± SD; read-out: Trypanocidal Activity Intracellular Amastigotes IC50
Procedure: The susceptibility of intracellular amastigotes to pyrazole-thiazoline derivatives (series 1 and 2) was evaluated using 24 h T. cruzi-infected Vero cell monolayers (10:1 parasite/host cell ratio). […] After 72 h of treatment, luciferin (300 µg/mL) was added to the culture, and the viability of the parasites was assessed by reading the luminescent signal on the GloMax reader (Promega Corporation, Madison, WI, USA). […] The selectivity index (SI) was calculated as CC50/IC50 for each parasite form.
Labelling: IC50 reported below 8 µM becomes fulfilled; at or above becomes not fulfilled.

Consider the following illustrative entries.
{"cpdSmiles": "Fc1cccc(-n2cc(C3=NCCS3)cn2)c1", "class": "not fulfilled"}
{"cpdSmiles": "Clc1cccc(-n2cc(C3=NCCS3)cn2)c1", "class": "not fulfilled"}
{"cpdSmiles": "Brc1ccc(-n2cc(C3=NCCS3)cn2)cc1", "class": "fulfilled"}

Moving on to another molecule below.
Input: Does the reported IC50 of the following molecule sit strictly below 8 µM? Clc1ccc(-n2cc(C3=NCCS3)cn2)cc1
Output: fulfilled

---

Assay: Cytotoxicity in vitro assay (CellTiter-Glo)
Format: cell-based
Conditions: African green monkey, Vero cells, mean ± SD
Would you mind telling me the reported log10 of CC50 at 72 h of each entry?
Please interpret these as log10 of CC50 at 72 h where CC50 at 72 h is in µM.

{"molecule": "Nc1c(C2=NCCS2)cnn1-c1cc(Cl)cc(Cl)c1 [Compound 1d]", "endpointLabel": "log10 of CC50 at 72 h", "valueReported": 2.62}
{"molecule": "Clc1cccc(-n2cc(C3=NCCS3)cn2)c1Cl [Compound 2l]", "endpointLabel": "log10 of CC50 at 72 h", "valueReported": 1.95}

Provide each entry's log10 of CC50 at 72 h from the list below.
1. Fc1cccc(-n2cc(C3=NCCS3)cn2)c1 [Compound 2h]
2. Clc1cccc(-n2cc(C3=NCCS3)cn2)c1 [Compound 2b]
3. Fc1ccc(-n2cc(C3=NCCS3)cn2)cc1 [Compound 2g]
4. COc1ccc(-n2cc(C3=NCCS3)cn2)cc1 [Compound 2k]

Output:
1: 1.58; 2: 1.89; 3: 1.77; 4: 2.04

Input: Return value of log10 of CC50 at 72 h for input Clc1ccc(-n2cc(C3=NCCS3)cn2)cc1 [Compound 2f] , no commentary.
Output: 1.96
